- test_details: Acute toxicity in ip dosed mouse
- Format: organism-based
- condition_details: in vivo
endpoint_label: LD50 (mg/kg)

[
  {
    "input_smiles": "CN[C@@H]1C[C@H]2O[C@@](C)([C@@H]1OC)n1c3ccccc3c3c4c(c5c6ccccc6n2c5c31)C(=O)NC4.Cl",
    "number": 6.6
  }
]
